Hey, just so you know, these numbers are from the supplement of paper PMC7600603.

- Tested on: DLD1 NRF2-GOF
- assay.details: drug sensitivity score (DSS) cytotoxicity (DSS score); higher = more toxic; extreme values may be limits of the assay
- test.conditions: 72 h; CellTox Green cytotoxicity

- molecule: "CO[C@@H](C(=O)N1Cc2[nH]nc(NC(=O)c3ccc(N4CCN(C)CC4)cc3)c2C1)c1ccccc1 [Danusertib]"
  drug sensitivity score: 0
- molecule: "C=CC(=O)N1CCC(Oc2cc3c(Nc4ccc(Cl)c(Cl)c4F)ncnc3cc2OC)CC1 [Poziotinib]"
  drug sensitivity score: 0
- molecule: "Cc1cc2c(C(C)C)c(O)c(O)c(C=O)c2c(O)c1-c1c(C)cc2c(C(C)C)c(O)c(O)c(C=O)c2c1O [AT 101]"
  drug sensitivity score: 1
- molecule: "COc1cc2nccc(Oc3ccc(NC(=O)Nc4cc(C)on4)c(Cl)c3)c2cc1OC [Tivozanib]"
  drug sensitivity score: 4.5
